Hey, just so you know, these numbers are from PubChem BioAssay AID1745844.

system: rodent lifetime carcinogenesis bioassay, tumor incidence TD50; test: carcinogenic potency in animals, long-term in vivo studies, CPDB compilation (AID 1745844); conditions: rat; strain Fischer 344; males; by gavage; site: preputial gland; lesion: adenoma, NOS + carcinoma, NOS; dosed 104 weeks; study length 105 weeks
observed-property: TD50 (mg/kg/day)
One number for each entry, in mg/kg/day.

Item CCCC(Cl)CCCC(Cl)CCC(Cl)CCC(Cl)CCC(Cl)CCCC(Cl)CCC (stereo unspecified) has what recorded TD50?
522

---

tested on: rodent lifetime carcinogenesis bioassay, tumor incidence TD50; experiment: carcinogenic potency in animals, long-term in vivo studies, CPDB compilation (AID 1745844); details: rat; strain Fischer 344; females; in feed; site: clitoral gland + uterus; lesion: adenoma, NOS + carcinoma, NOS + endometrial stromal polyp; dosed 103 weeks; study length 106 weeks
observed-property: TD50
Give the value; after it, write the unit.

Notebook: pull reported TD50 for rodent lifetime carcinogenesis bioassay, tumor incidence TD50, entry Nc1cccc2c(N)cccc12
50.8 mg/kg/day

---

system: rodent lifetime carcinogenesis bioassay, tumor incidence TD50; assay: carcinogenic potency in animals, long-term in vivo studies, CPDB compilation (AID 1745844); conditions: rat; strain Fischer 344; males; in feed; site: kidney; lesion: tubule adenoma + tubule carcinoma; dosed 39 weeks; study length 66 weeks
observed-property: TD50 (mg/kg/day)
Give bare numbers, in mg/kg/day.

// lookup TD50 for Nc1c(Br)cc(Br)c2c1C(=O)c1ccccc1C2=O
239

---

tested on: rodent lifetime carcinogenesis bioassay, tumor incidence TD50; test: carcinogenic potency in animals, long-term in vivo studies, CPDB compilation (AID 1745844); details: rat; strain Fischer 344; females; in drinking water; site: esophagus; lesion: squamous-cell carcinoma; dosed 100 weeks; study length 128 weeks
observed-property: TD50

Form field: reported TD50 of O=NN1CC=CCC1
0.43 mg/kg/day

---

system: rodent lifetime carcinogenesis bioassay, tumor incidence TD50; assay: carcinogenic potency in animals, long-term in vivo studies, CPDB compilation (AID 1745844); conditions: mouse; strain B6C3F1; females; in feed; site: lung; lesion: alveolar/bronchiolar adenoma + alveolar/bronchiolar carcinoma; dosed 97 weeks; study length 97 weeks
observed-property: TD50 (mg/kg/day)
Give bare numbers, in mg/kg/day.

What does the data say about its TD50? Entry: COc1ccc(C)cc1N
3810

---

test system: rodent lifetime carcinogenesis bioassay, tumor incidence TD50; assay: carcinogenic potency in animals, long-term in vivo studies, CPDB compilation (AID 1745844); settings: rat; strain Wistar-random; males; inhaled; site: any site (literature study); lesion: malignant tumor; dosed 124 weeks; study length 124 weeks
observed-property: TD50 (mg/kg/day)
Give bare numbers, in mg/kg/day.

Need TD50, item CC1CO1 (stereo unspecified)
101

---

test system: rodent lifetime carcinogenesis bioassay, tumor incidence TD50; assay: carcinogenic potency in animals, long-term in vivo studies, CPDB compilation (AID 1745844); details: rat; strain Fischer 344/Jcl; females; by gavage; site: clitoral gland; lesion: squamous-cell carcinoma; dosed 55 weeks; study length 104 weeks
observed-property: TD50

Param readout = TD50; param system = rodent lifetime carcinogenesis bioassay, tumor incidence TD50; param query = O=[N+]([O-])c1ccc2ccc3cccc4ccc1c2c34 ; response: value
6.08 mg/kg/day

---

system: rodent lifetime carcinogenesis bioassay, tumor incidence TD50; experiment: carcinogenic potency in animals, long-term in vivo studies, CPDB compilation (AID 1745844); conditions: rat; strain Fischer 344; males; in feed; site: all sites; lesion: mesothelioma, malignant; dosed 12 weeks; study length 103 weeks
observed-property: TD50 (mg/kg/day)
Answers are plain numbers, in mg/kg/day.

Which TD50 is listed for OCC(CO)(CBr)CBr ?
28.4

---

system: rodent lifetime carcinogenesis bioassay, tumor incidence TD50; experiment: carcinogenic potency in animals, long-term in vivo studies, CPDB compilation (AID 1745844); conditions: mouse; strain B6C3F1; males; in feed; site: thyroid gland; lesion: c-cell adenoma + c-cell carcinoma + follicular-cell adenoma + papillary cystadenoma, NOS + papillary adenoma; dosed 103 weeks; study length 105 weeks
observed-property: TD50 (mg/kg/day)
Give bare numbers, in mg/kg/day.

Dear colleague, I am looking for the recorded TD50 of the following compound: Nc1cccc2c(N)cccc12
217

---

test system: rodent lifetime carcinogenesis bioassay, tumor incidence TD50; experiment: carcinogenic potency in animals, long-term in vivo studies, CPDB compilation (AID 1745844); conditions: rat; strain Marshall; males; by gavage; site: kidney; lesion: tubular-cell adenocarcinoma; dosed 103 weeks; study length 104 weeks
observed-property: TD50 (mg/kg/day)
Give bare numbers, in mg/kg/day.

If you can, please state the reported TD50 value of ClC=C(Cl)Cl .
8000

---

tested on: rodent lifetime carcinogenesis bioassay, tumor incidence TD50; assay: carcinogenic potency in animals, long-term in vivo studies, CPDB compilation (AID 1745844); conditions: rat; strain Charles River CD (Sprague-Dawley); females; i.p.; site: any site (literature study); lesion: malignant tumor; dosed 26 weeks; study length 78 weeks
Numbered stars: 1 amine (or outer) side, 2 acyl side, 3 side chain; on linkers, the order of the positions; unused ones are H or OH. Bridge positions count the residues as written; N and C are the ends. Square brackets hold non-standard residues; d marks the D form. Peptide text beside a SMILES is read from it. I, II: the chains in the order shown. Actinocin(9to1) = Cc1c2oc3c(C)ccc(C(=O)[*:1])c3nc-2c(C(=O)[*:2])c(N)c1=O; NMeV = CN[C@H](C(=O)O)C(C)C; Sar = CNCC(=O)O
Record form. Attribute: TD50. Fill in for each entry.
Answers are plain numbers, in mg/kg/day.

Quick batch: TD50 for everything below.
1. CN(N=O)C(=O)N[C@@H](C=O)[C@@H](O)[C@H](O)[C@H](O)CO
2. Cc1c2oc3c(C)ccc(C(=O)N[C@@H]4C(=O)N[C@H](C(C)C)C(=O)N5CCC[C@H]5C(=O)N(C)CC(=O)N(C)[C@@H](C(C)C)C(=O)O[C@@H]4C)c3nc-2c(C(=O)N[C@@H]2C(=O)N[C@H](C(C)C)C(=O)N3CCC[C@H]3C(=O)N(C)CC(=O)N(C)[C@@H](C(C)C)C(=O)O[C@@H]2C)c(N)c1=O (I: T[dV]P[Sar][NMeV] / II: T[dV]P[Sar][NMeV]; ester I:1-I:C, II:1-II:C; linker I:N-II:N via Actinocin(9to1))
3. O[C@@H]([C@H](O)[C@H](O)CBr)[C@H](O)CBr

1. 0.363
2. 0.00121
3. 11.5

---

test system: rodent lifetime carcinogenesis bioassay, tumor incidence TD50; test: carcinogenic potency in animals, long-term in vivo studies, CPDB compilation (AID 1745844); settings: mouse; strain B6C3F1; males; inhaled; site: forestomach; lesion: papilloma, NOS + squamous-cell carcinoma + squamous-cell papilloma; dosed 60 weeks; study length 60 weeks
observed-property: TD50 (mg/kg/day)
Answers are plain numbers, in mg/kg/day.

Report TD50 for C=CC=C please.
120

---

tested on: rodent lifetime carcinogenesis bioassay, tumor incidence TD50; experiment: carcinogenic potency in animals, long-term in vivo studies, CPDB compilation (AID 1745844); conditions: rat; strain Han:WIST; males; inhaled; site: kidney; lesion: tubular-cell adenoma; dosed 78 weeks; study length 156 weeks
Calls of active or inactive are those of the source. How the calls were made is not given here.
observed-property: TD50

Quick one: TD50 of ClC=C(Cl)Cl ?
10700 mg/kg/day (inactive)

---

tested on: rodent lifetime carcinogenesis bioassay, tumor incidence TD50; test: carcinogenic potency in animals, long-term in vivo studies, CPDB compilation (AID 1745844); conditions: rat; strain Sherman COBS; females; in feed; site: liver; lesion: hepatocellular carcinoma; dosed 89 weeks; study length 95 weeks
observed-property: TD50

Item under review: Clc1ccc(-c2ccc(Cl)c(Cl)c2Cl)c(Cl)c1Cl . Reported TD50?
18.3 mg/kg/day

---

system: rodent lifetime carcinogenesis bioassay, tumor incidence TD50; assay: carcinogenic potency in animals, long-term in vivo studies, CPDB compilation (AID 1745844); details: rat; strain Han-Ibm Wistar; females; inhaled; site: liver; lesion: hepatocellular carcinoma; dosed 108 weeks; study length 108 weeks
Activity calls are given as the source filed them. The rule behind the calls is not given here.
observed-property: TD50

Report TD50 for FCC(F)(F)F tested on rodent lifetime carcinogenesis bioassay, tumor incidence TD50.
2.8e+06 mg/kg/day (inactive)

---

system: rodent lifetime carcinogenesis bioassay, tumor incidence TD50; assay: carcinogenic potency in animals, long-term in vivo studies, CPDB compilation (AID 1745844); conditions: rat; strain Fischer 344; females; in feed; site: stomach; lesion: squamous-cell carcinoma; dosed 78 weeks; study length 109 weeks
observed-property: TD50

Look up TD50 with rodent lifetime carcinogenesis bioassay, tumor incidence TD50 for this compound: Cc1ccc2c(c1[N+](=O)[O-])C(=O)c1ccccc1C2=O
507 mg/kg/day

---

Provide the recorded TD50 for the entries that follow.
test system: rodent lifetime carcinogenesis bioassay, tumor incidence TD50; experiment: carcinogenic potency in animals, long-term in vivo studies, CPDB compilation (AID 1745844); details: rat; strain Fischer 344; males; by gavage; site: any site (literature study); lesion: several types; types named in the paper; dosed 103 weeks; study length 104 weeks
Calls of active or inactive are those of the source. No rule for the calls is given here.

Would you please look over these solved cases?
Sample CC1(C)S[C@@H]2[C@H](NC(=O)COc3ccccc3)C(=O)N2[C@H]1C(=O)O — what was its TD50?
544 mg/kg/day

Try this molecule too: Oc1cccc(O)c1
213 mg/kg/day

List TD50 for every entry below, keeping the order given.
1. C=CCOC(=O)c1ccccc1C(=O)OCC=C
2. C[C@@H]1Cc2c(Cl)cc(C(=O)N[C@@H](Cc3ccccc3)C(=O)O)c(O)c2C(=O)O1
3. C=CC1CC=CCC1 (stereo unspecified)
4. ClCC(Cl)(Cl)Cl
5. Nc1ccc([N+](=O)[O-])cc1O

["2990 mg/kg/day (inactive)", "0.0863 mg/kg/day", "119 mg/kg/day", "464 mg/kg/day", "33.6 mg/kg/day"]
